test: The drug is tested on Bacteroides sp. WH2 strain: WH2 for biotransformation. The drug concentrations were measured before and after a 12-h incubation by liquid-chromatography-coupled mass spectrometry (LC–MS); conditions: bacteroides sp. wh2, 12 h, 2 µM
observation type: Bacterial Biotransformation

Examples with their reported Bacterial Biotransformation follow.
molecule="COc1ccc2c(c1)c(CC(=O)O)c(C)n2C(=O)c1ccc(Cl)cc1 [INDOMETHACIN]" result="Compound metabolized"
molecule="CC(C)(C)NC[C@H](O)COc1nsnc1N1CCOCC1.O=C(O)/C=C\\C(=O)O [TIMOLOL MALEATE]" result="Compound NOT metabolized"
molecule="CCN(CC)CCNC(=O)c1cc(S(C)(=O)=O)ccc1OC [TIAPRIDE]" result="Compound NOT metabolized"
molecule="Cc1ccc(NC(=O)c2ccc(CN3CCN(C)CC3)cc2)cc1Nc1nccc(-c2cccnc2)n1 [IMATINIB]" result="Compound NOT metabolized"
molecule="CC(CCc1ccccc1)NCC(O)c1ccc(O)c(C(N)=O)c1 (configuration not stated) [LABETALOL]" result="Compound NOT metabolized"

Quick one: Bacterial Biotransformation for CCc1oc2ccccc2c1C(=O)c1cc(Br)c(O)c(Br)c1 [BENZBROMARONE] ?
Compound NOT metabolized

Query: Bacterial Biotransformation; subject: CC[C@@]1(O)C(=O)OCc2c1cc1n(c2=O)Cc2cc3c(CN(C)C)c(O)ccc3nc2-1 [TOPOTECAN]
Compound NOT metabolized

Value lookup for Bacterial Biotransformation; key = CC(C)(Oc1ccc(CCNC(=O)c2ccc(Cl)cc2)cc1)C(=O)O [BEZAFIBRATE]
Compound metabolized

Any idea what Bacterial Biotransformation was measured for C=C[C@H]1CN2CC[C@H]1C[C@H]2[C@H](O)c1ccnc2ccc(OC)cc12.C=C[C@H]1CN2CC[C@H]1C[C@H]2[C@H](O)c1ccnc2ccc(OC)cc12.O.O.O=S(=O)(O)O [QUININE SULFATE] ?
Compound NOT metabolized

Quick one: Bacterial Biotransformation for O=C([O-])C[C@H](O)C[C@H](O)/C=C/c1c(C2CC2)nc2ccccc2c1-c1ccc(F)cc1.O=C([O-])C[C@H](O)C[C@H](O)/C=C/c1c(C2CC2)nc2ccccc2c1-c1ccc(F)cc1.[Ca+2] [PITAVASTATIN CALCIUM] ?
Compound NOT metabolized

Record request: Bacterial Biotransformation value, item CC(=O)OCC(=O)[C@@]1(O)[C@@H](C)C[C@H]2[C@@H]3CCC4=CC(=O)C=C[C@]4(C)[C@@]3(F)[C@@H](O)C[C@@]21C [BETAMETHASONE ACETATE]
Compound NOT metabolized

Given the molecule O=C(O)CCC(=O)O.O=C(O[C@H]1CN2CCC1CC2)N1CCc2ccccc2[C@@H]1c1ccccc1 [SOLIFENACIN SUCCINATE] , what is its reported Bacterial Biotransformation?
Compound NOT metabolized

* * *

assay: The drug is tested on Alistipes indistinctus strain: DSM22520 for biotransformation. The drug concentrations were measured before and after a 12-h incubation by liquid-chromatography-coupled mass spectrometry (LC–MS); conditions: 2 µM
observation type: Bacterial Biotransformation

Worked cases, Bacterial Biotransformation given:
molecule="COc1ccccc1OCC(O)CN1CCN(CC(=O)Nc2c(C)cccc2C)CC1 (stereo not drawn)" observation_type="Bacterial Biotransformation" result="Compound NOT metabolized"
molecule=CCOC(=O)[C@H](CCc1ccccc1)N[C@@H](C)C(=O)N1[C@H](C(=O)O)C[C@H]2CCCC[C@@H]21 observation_type="Bacterial Biotransformation" result="Compound NOT metabolized"
molecule="CC(Oc1c(Cl)cccc1Cl)C1=NCCN1 (stereo not drawn)" observation_type="Bacterial Biotransformation" result="Compound metabolized"
molecule=C#C[C@]1(O)CC[C@H]2[C@@H]3CCC4=Cc5oncc5C[C@]4(C)[C@H]3CC[C@@]21C observation_type="Bacterial Biotransformation" result="Compound metabolized"

What value of measured Bacterial Biotransformation is listed for CCCCc1nc(Cl)c(CO)n1Cc1ccc(-c2ccccc2-c2nn[nH]n2)cc1 ?
Compound NOT metabolized

Report Bacterial Biotransformation for COC(=O)Nc1nc2ccc(C(=O)c3ccccc3)cc2[nH]1 please.
Compound NOT metabolized

Please give the measured Bacterial Biotransformation for this molecule: Cc1ccnc2c1NC(=O)c1cccnc1N2C1CC1
Compound NOT metabolized

Would you kindly share the measured Bacterial Biotransformation for CN1CC(=O)N2[C@H](c3ccc4c(c3)OCO4)c3[nH]c4ccccc4c3C[C@@H]2C1=O ?
Compound NOT metabolized

* * *

conditions: parabacteroides johnsonii, 12 h, 2 µM
Description: The drug is tested on Parabacteroides johnsonii strain: DSM18315 for biotransformation. The drug concentrations were measured before and after a 12-h incubation by liquid-chromatography-coupled mass spectrometry (LC–MS)
observation type: Bacterial Biotransformation

Worked set:
molecule="CC(=O)CCCCn1c(=O)c2c(ncn2C)n(C)c1=O [PENTOXIFYLLINE]" observation_type="Bacterial Biotransformation" result="Compound NOT metabolized"
molecule="Cc1ccccc1C(OCCN(C)C)c1ccccc1.O=C(O)CC(O)(CC(=O)O)C(=O)O (stereo unspecified) [ORPHENADRINE CITRATE]" observation_type="Bacterial Biotransformation" result="Compound NOT metabolized"
molecule="CC(CCc1ccccc1)NCC(O)c1ccc(O)c(C(N)=O)c1 (stereo unspecified) [LABETALOL]" observation_type="Bacterial Biotransformation" result="Compound NOT metabolized"
molecule="CN1C(C(=O)Nc2ccccn2)=C(O)c2sccc2S1(=O)=O [TENOXICAM]" observation_type="Bacterial Biotransformation" result="Compound NOT metabolized"
molecule="CC12CC3CC(C)(C1)CC(N)(C3)C2 [MEMANTINE]" observation_type="Bacterial Biotransformation" result="Compound NOT metabolized"
molecule="CC(CN(C)C)CN1c2ccccc2CCc2ccccc21.O=C(O)/C=C\\C(=O)O (stereo unspecified) [TRIMIPRAMINE MALEATE]" observation_type="Bacterial Biotransformation" result="Compound NOT metabolized"

Consider the molecule O=C(O)COCCN1CCN(C(c2ccccc2)c2ccc(Cl)cc2)CC1 (stereo unspecified) [CETIRIZINE] and give its measured Bacterial Biotransformation.
Compound NOT metabolized

Query (molecule): COc1ccccc1N1CCN(CC(O)COc2cccc3ccccc23)CC1 (stereo unspecified) [NAFTOPIDIL] ; field requested: Bacterial Biotransformation
Compound NOT metabolized

Given Cc1cn([C@H]2C[C@H](N=[N+]=[N-])[C@@H](CO)O2)c(=O)[nH]c1=O [ZIDOVUDINE] , state its recorded Bacterial Biotransformation.
Compound metabolized

May I ask what Bacterial Biotransformation has been recorded for CNCC[C@H](Oc1cccc2ccccc12)c1cccs1 [DULOXETINE] ?
Compound metabolized

Recorded Bacterial Biotransformation for CNNCc1ccc(C(=O)NC(C)C)cc1 [PROCARBAZINE] , please?
Compound metabolized

Item under review: COC(=O)C(c1ccccc1)C1CCCCN1 (stereo unspecified) [METHYLPHENIDATE] . Reported Bacterial Biotransformation?
Compound metabolized

Requested read-out: Bacterial Biotransformation. Entry: O=C(NC(Cc1cc(=O)[nH]c2ccccc12)C(=O)O)c1ccc(Cl)cc1 (stereo unspecified) [REBAMIPIDE]
Compound NOT metabolized

Given the entry CNC(=C[N+](=O)[O-])NCCSCc1csc(CN(C)C)n1 [NIZATIDINE] , report its measured Bacterial Biotransformation.
Compound metabolized

Can you look up the measured Bacterial Biotransformation of CCN(CC)C(=O)/C(C#N)=C/c1cc(O)c(O)c([N+](=O)[O-])c1 [ENTACAPONE] for me?
Compound metabolized

Consider the molecule shown here: Cc1ccc(S(=O)(=O)NC(=O)NN2CCCCCC2)cc1 [TOLAZAMIDE] What is its recorded Bacterial Biotransformation?
Compound metabolized

Recorded Bacterial Biotransformation for CCCCCOC(=O)Nc1nc(=O)n([C@@H]2O[C@H](C)[C@@H](O)[C@H]2O)cc1F [CAPECITABINE] , please?
Compound NOT metabolized

Look at this molecule and give its reported Bacterial Biotransformation. CN1CCN(C2=Nc3ccccc3Oc3ccc(Cl)cc32)CC1.O=C(O)CCC(=O)O [LOXAPINE SUCCINATE]
Compound NOT metabolized

Quick one: Bacterial Biotransformation for CCOc1cc(CC(=O)N[C@@H](CC(C)C)c2ccccc2N2CCCCC2)ccc1C(=O)O [REPAGLINIDE] ?
Compound metabolized

Param item = CC(C)(C)NCC(O)c1cc(Cl)c(N)c(Cl)c1 (stereo unspecified) [CLENBUTEROL] ; retrieve measured Bacterial Biotransformation.
Compound NOT metabolized

Look up Bacterial Biotransformation: C=CCN1CC[C@]23c4c5ccc(O)c4O[C@H]2C(=O)CC[C@@]3(O)[C@H]1C5 [NALOXONE]
Compound metabolized

Request the reported Bacterial Biotransformation associated with CN1CCC(=C2c3ccccc3CC(=O)c3sccc32)CC1.O=C(O)/C=C/C(=O)O [KETOTIFEN FUMARATE]
Compound NOT metabolized

State the recorded Bacterial Biotransformation for this entry: COC(=O)Nc1nc2ccc(C(=O)c3ccccc3)cc2[nH]1 [MEBENDAZOLE]
Compound NOT metabolized

Give its Bacterial Biotransformation value. Item: COC(=O)C1=C(C)NC(C)=C(C(=O)OC(C)C)C1c1cccc2nonc12 (stereo unspecified) [ISRADIPINE]
Compound NOT metabolized

I would be grateful if you could share the reported Bacterial Biotransformation for CN1C(=O)CC(C)(c2ccccc2)C1=O (stereo unspecified) [METHSUXIMIDE] .
Compound NOT metabolized

Using the record for CCc1nc(N)nc(N)c1-c1ccc(Cl)cc1 [PYRIMETHAMINE] , report its Bacterial Biotransformation.
Compound NOT metabolized
